# assay-text: Distribution of C1 in tissues
# Assay type: in vivo, Wistar rats
# details: male, Wistar, rat, muscle, po, 75 mg/kg, Muscle, 6 h, p.o. 75 mg/kg, n = 3; read-out: Average Concentration

smiles-data: O=C(/C=C(/Br)C(=O)O)Nc1ccc(O)c(C(=O)O)c1
concentration at 6 h: 2500 ng/mL

* * *

# assay-text: Distribution of C1 in tissues
# Assay type: in vivo, Wistar rats
# details: male, Wistar, rat, muscle, po, 75 mg/kg, Muscle, 3 h, p.o. 75 mg/kg, n = 3; read-out: Average Concentration

smiles-data: O=C(/C=C(/Br)C(=O)O)Nc1ccc(O)c(C(=O)O)c1
unit-abbrev: ng/mL
concentration at 3 h: 2700

* * *

# assay-text: Pharmacokinetic profiles after p.o., i.p. and i.v. administration
# Type: in vivo, Wistar rats
# details: Wistar, rat, plasma, po, 50 mg/kg, plasma, i.g. (p.o.) 50 mg/kg, 540 min, n = 6; read-out: Average Concentration
recorded-endpoint: concentration at 540 min (ng/mL)

smiles-data: O=C(/C=C(/Br)C(=O)O)Nc1ccc(O)c(C(=O)O)c1
recorded-endpoint: concentration at 540 min
unit-abbrev: ng/mL
test-result: 136

* * *

# assay-text: Distribution of C1 in tissues
# Type: in vivo, Wistar rats
# details: male, Wistar, rat, kidney, po, 75 mg/kg, Kidney, 6 h, p.o. 75 mg/kg, n = 3; read-out: Average Concentration

compound: O=C(/C=C(/Br)C(=O)O)Nc1ccc(O)c(C(=O)O)c1 [Compound C1]
concentration at 6 h: 4100 ng/mL

* * *

# assay-text: Pharmacokinetic profiles after p.o., i.p. and i.v. administration
# Format: in vivo, Wistar rats
# details: Wistar, rat, plasma, ip, 75 mg/kg, plasma, i.p. 75 mg/kg, 540 min, individual rats; read-out: Concentration (µg/mL), Rat 1-6

compound: O=C(/C=C(/Br)C(=O)O)Nc1ccc(O)c(C(=O)O)c1 [Compound C1]
concentration at 540 min (µg/mL): 0

* * *

# assay-text: Distribution of C1 in tissues
# Format: in vivo, Wistar rats
# details: male, Wistar, rat, brain, po, 75 mg/kg, Brain, 30 min, p.o. 75 mg/kg, n = 3; read-out: Average Concentration
recorded-endpoint: concentration at 30 min (ng/mL)

smiles-data: O=C(/C=C(/Br)C(=O)O)Nc1ccc(O)c(C(=O)O)c1
unit-abbrev: ng/mL
test-result: 3500

* * *

# assay-text: Pharmacokinetic profiles after p.o., i.p. and i.v. administration
# Assay type: in vivo, Wistar rats
# details: Wistar, rat, plasma, ip, 75 mg/kg, plasma, i.p. 75 mg/kg, 300 min, n = 6; read-out: Average Concentration
recorded-endpoint: concentration at 300 min (ng/mL)

molecule: O=C(/C=C(/Br)C(=O)O)Nc1ccc(O)c(C(=O)O)c1 [Compound C1]
unit-abbrev: ng/mL
test-result: 0

* * *

# assay-text: Pharmacokinetic profiles after p.o., i.p. and i.v. administration
# Format: in vivo, Wistar rats
# details: Wistar, rat, plasma, iv, 50 mg/kg, plasma, i.v. 50 mg/kg, 540 min, individual rats; read-out: Concentration (µg/mL), Rat 1-6
recorded-endpoint: concentration at 540 min

smiles-data: O=C(/C=C(/Br)C(=O)O)Nc1ccc(O)c(C(=O)O)c1
test-result: 0 µg/mL

Reference source: paper PMC8617944
